Assay Target: GST tagged truncated human mutant G2019S LRRK2 (Homo sapiens (Human), UniProt Q5S007, G2019S)
Sequence (Q5S007 970-2527 G2019S): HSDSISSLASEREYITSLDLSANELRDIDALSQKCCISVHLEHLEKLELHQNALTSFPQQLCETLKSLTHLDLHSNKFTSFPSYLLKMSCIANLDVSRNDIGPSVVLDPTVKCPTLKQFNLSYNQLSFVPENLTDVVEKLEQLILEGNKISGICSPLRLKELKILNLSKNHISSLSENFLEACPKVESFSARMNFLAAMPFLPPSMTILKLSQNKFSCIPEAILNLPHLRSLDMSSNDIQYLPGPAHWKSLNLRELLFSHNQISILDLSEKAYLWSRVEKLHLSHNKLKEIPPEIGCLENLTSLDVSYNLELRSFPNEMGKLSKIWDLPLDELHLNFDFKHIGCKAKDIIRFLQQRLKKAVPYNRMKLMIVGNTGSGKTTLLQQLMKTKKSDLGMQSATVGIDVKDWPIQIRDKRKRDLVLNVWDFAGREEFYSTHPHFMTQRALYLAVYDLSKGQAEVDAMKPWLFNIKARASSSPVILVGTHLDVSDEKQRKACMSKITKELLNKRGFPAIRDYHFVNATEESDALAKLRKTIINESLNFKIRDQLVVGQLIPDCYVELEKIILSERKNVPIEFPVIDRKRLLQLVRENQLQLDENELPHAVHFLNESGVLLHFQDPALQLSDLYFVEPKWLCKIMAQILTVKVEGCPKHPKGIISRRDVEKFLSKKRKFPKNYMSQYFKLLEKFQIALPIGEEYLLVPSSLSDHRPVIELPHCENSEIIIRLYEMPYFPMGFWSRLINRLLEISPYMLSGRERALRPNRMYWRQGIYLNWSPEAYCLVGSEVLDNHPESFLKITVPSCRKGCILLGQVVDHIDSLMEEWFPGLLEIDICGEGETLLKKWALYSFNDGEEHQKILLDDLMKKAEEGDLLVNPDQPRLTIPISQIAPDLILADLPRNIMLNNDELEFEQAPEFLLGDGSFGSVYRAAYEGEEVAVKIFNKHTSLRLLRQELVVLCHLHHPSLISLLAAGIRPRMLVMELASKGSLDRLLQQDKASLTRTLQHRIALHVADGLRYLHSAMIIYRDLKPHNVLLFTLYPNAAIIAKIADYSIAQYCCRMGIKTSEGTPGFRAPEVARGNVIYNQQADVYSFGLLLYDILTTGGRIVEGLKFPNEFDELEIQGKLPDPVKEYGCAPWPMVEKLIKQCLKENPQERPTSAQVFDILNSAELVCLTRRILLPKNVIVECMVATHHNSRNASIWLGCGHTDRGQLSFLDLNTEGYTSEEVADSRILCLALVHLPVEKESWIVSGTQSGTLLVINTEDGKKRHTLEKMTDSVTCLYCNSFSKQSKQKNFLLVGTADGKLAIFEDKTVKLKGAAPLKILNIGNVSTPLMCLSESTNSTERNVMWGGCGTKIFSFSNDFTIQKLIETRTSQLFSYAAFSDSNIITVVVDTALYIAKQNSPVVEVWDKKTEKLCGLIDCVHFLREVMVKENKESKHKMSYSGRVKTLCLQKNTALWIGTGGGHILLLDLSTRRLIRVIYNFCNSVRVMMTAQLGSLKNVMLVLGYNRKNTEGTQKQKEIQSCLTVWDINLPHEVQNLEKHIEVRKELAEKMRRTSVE
Method: LRRK2 Km ATP LanthaScreen Assay
Format: biochemical
Condition Summary: G2019S LRRK2, 134 μM ATP (Km ATP), mean values
Observed Property: LRRK2 pIC50
Form field (numeric): enter value without unit.

// worked examples, LRRK2 pIC50 included
Molecule	Obs Value
Cc1c(Nc2ncc3cc(Cl)c(C4CCN(C[C@@H](O)c5cc(F)ccc5F)CC4)cc3n2)cnn1C1CC1	8.40
CC1(n2ncc(Nc3ncc4cc(Cl)c(C5CCN(C6CS(=O)(=O)C6)CC5)cc4n3)c2Cl)CC1	8.92
Cc1cc2cnc(Nc3cnn(C4CC4)c3C)nc2cc1[C@@H]1CCN(C2COC2)C[C@H]1F (single isomer, unassigned)	8.96
CC(C)(O)Cn1ncc(Nc2ncc3cc(Cl)c(C4CCNCC4)cc3n2)c1Cl	8.46

Need LRRK2 pIC50 of Cc1c(Nc2ncc3cc(Cl)c(C4CCC(C)(O)CC4)cc3n2)cnn1C1CC1 (stereo not drawn) , thanks. 8.92

Entry to check: Cc1cc2cnc(Nc3cnn(C4CC4(F)F)c3Cl)nc2cc1[C@H]1CCN(C2COC[C@H]2O)C[C@@H]1F (single isomer, unassigned) 9.19

// next record Cc1cc(Nc2ncc3cc(C)c([C@H]4CCN([C@@H]5COC[C@@H]5O)C[C@@H]4F)cc3n2)n(C)n1 (single isomer, unassigned) 8.57

And what about the molecule OC1(Cn2ncc(Nc3ncc4cc(Cl)c(C5CCN(C6COC6)CC5)cc4n3)c2Cl)CCC1 ? 8.78

Please answer likewise for N#Cc1cc2cnc(Nc3cnn(C4CC4(F)F)c3Cl)nc2cc1[C@H]1CCN(C2COC2)C[C@@H]1F (single isomer, unassigned) [Ex-6.6] 8.94

Subsequent entry: CO[C@@H]1COC[C@@H]1N1CC[C@@H](c2cc3nc(Nc4cnn(C5CC5(F)F)c4Cl)ncc3cc2C)[C@H](F)C1 (single isomer, unassigned) 8.22

Please do the same for COC[C@H](O)CN1CCC(c2cc3nc(Nc4cnn(C5CC5)c4C)ncc3cc2Cl)CC1 as well. 9.15

###

Assay Target: GST tagged truncated human mutant G2019S LRRK2 (Homo sapiens (Human), UniProt Q5S007, G2019S)
Method: LRRK2 Km ATP LanthaScreen Assay
Format: biochemical
Condition Summary: G2019S LRRK2, 134 μM ATP (Km ATP), mean values
Observed Property: LRRK2 pIC50
Give the figure by itself; no unit, no explanation.

Compound	Obs Value
CC(=O)N1CCC(c2cc3nc(Nc4cnn(C5CC5)c4Cl)ncc3cc2Cl)C[C@@H]1C (stereo partly shown)	7.39
[2H]C1([2H])OC([2H])([2H])C1N1CCC(c2cc3nc(Nc4cnn(C5CC5)c4Cl)ncc3cc2Cl)CC1	9.18
Cc1c(Nc2ncc3cc(Cl)c(C4CCN([C@@H]5COC[C@@H]5O)CC4)cc3n2)cnn1C1CC1 (single isomer, unassigned)	8.62
CC1CC(c2cc3nc(Nc4cnn(C5CC5)c4Cl)ncc3cc2Cl)CC(C)N1C1COC1 (stereo not shown)	8.46

Then this compound:
Which LRRK2 pIC50 is reported for this compound? Cn1nc(C(F)(F)F)cc1Nc1ncc2cc(Cl)c(C3CCN([C@@H]4COC[C@@H]4O)CC3)cc2n1 (single isomer, unassigned) 8.58
